- test.name: Host cell cytotoxicity (CC50) in infected THP-1 cells, dose-dilution assay
- Assay type: cell-based
- measurement.context: human, infected THP-1 host cells, read-out: THP-1 Cell CC50 ± SD
readout.type: CC50 at 72 h (µM)
Give bare numbers, in µM.

Example cases with answers are listed next.
chemical.smiles	CC50 at 72 h, µM
COc1ccc(-c2ccc3ncc4c(c3c2)n(-c2ccc(N3CCNCC3)c(C(F)(F)F)c2)c(=O)n4C)cn1	2.66
CCn1nnc2c(N3CCOCC3)nc(-c3ccc(NC(=O)Nc4ccc(C(=O)N5CCN(C)CC5)cc4)cc3)nc21	28.5

Problem: Entry CNC(=O)Nc1ccc(-c2nc(N3CC4CCC(C3)O4)c3cnn(C4CCC5(CC4)OCCO5)c3n2)cc1 has what CC50 at 72 h?
Result: 43.3

###

- System: intracellular L. donovani
- test.name: Intracellular L. donovani in THP-1 cells, dose-dilution high-content imaging assay
- Format: cell-based
- measurement.context: intracellular L. donovani EC50 / THP-1 CC50, result in words
readout.type: activity confirmation in dose-dilution assays

Example cases with answers are listed next.
> print(dat)
                                   compound         recorded.result
1  COc1ccc(CCCOC(Cn2ccnc2)c2ccc(OC)cc2)cc1 (centres unmarked)  confirmed to be active
2         S=C=Nc1cccc(C2(N3CCCCC3)CCCCC2)c1  confirmed to be active
3  CC(C)c1ccc(C(=O)c2cccs2)c(SCCCCCCCCN(C)C)n1  confirmed to be active
4  COc1ccccc1C1(O)CCN(CCCn2c3ccccc3c3ccccc32)CC1  confirmed to be active

In the following, a different compound is considered.
Problem: Entry [O-][S+](c1ccccc1)c1ccc2nnnn2n1 (centres unmarked) has what activity confirmation in dose-dilution assays?
Result: confirmed to be active

###

- test.name: Host cell cytotoxicity (CC50) in infected THP-1 cells, dose-dilution assay
- Format: cell-based
- measurement.context: human, infected THP-1 host cells, read-out: THP-1 Cell CC50 ± SD
readout.type: CC50 at 72 h

Report CC50 at 72 h for each item below.
1. Cn1c(=O)n(-c2ccc(C(C)(C)C#N)cc2)c2c3cc(-c4cnc5ccccc5c4)ccc3ncc21 [Dactolisib (NVP-BEZ235)]
2. C[C@@H]1[C@H](O)[C@@H](C)/C=C/C=C/C=C/C=C/C=C/C=C/C=C/[C@H](O[C@@H]2O[C@H](C)[C@@H](O)[C@H](N)[C@@H]2O)C[C@@H]2O[C@](O)(C[C@@H](O)C[C@@H](O)[C@H](O)CC[C@@H](O)C[C@@H](O)CC(=O)O[C@H]1C)C[C@H](O)[C@H]2C(=O)O [Amphotericin B]
3. CCCCCCCCCCCCCCCCOP(=O)([O-])OCC[N+](C)(C)C [Miltefosine]
4. CC(C)n1nc(-c2ccc3oc(N)nc3c2)c2c(N)ncnc21 [Sapanisertib]

Result:
> 100 µM
> 4 µM
> 40 µM
> 100 µM

Where do the numbers come from? From paper PMC7221892.
